# Subject Of Test: Neuropeptide Y receptor type 1 (Homo sapiens) (UniProt P25929)
# Sequence (P25929 whole entry, looked up): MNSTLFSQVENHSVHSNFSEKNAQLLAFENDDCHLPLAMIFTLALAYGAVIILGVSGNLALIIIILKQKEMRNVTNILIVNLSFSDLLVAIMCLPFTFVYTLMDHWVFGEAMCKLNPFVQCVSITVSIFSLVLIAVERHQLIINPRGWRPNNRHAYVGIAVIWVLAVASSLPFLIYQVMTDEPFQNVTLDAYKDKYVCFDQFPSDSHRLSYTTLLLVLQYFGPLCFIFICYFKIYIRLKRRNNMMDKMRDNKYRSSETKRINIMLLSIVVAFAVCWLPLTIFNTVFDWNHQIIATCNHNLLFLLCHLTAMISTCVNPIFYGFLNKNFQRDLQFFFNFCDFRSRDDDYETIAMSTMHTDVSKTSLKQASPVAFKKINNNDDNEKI
# Assay Remarks: blockers of human neuropeptide Y Y1 receptor – cell-based, primary screen (AID 1040);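 note: 0% = DMSO wells given NPY plus isoproterenol and 100% = isoproterenol alone without NPY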
# Condition Description: HEK293-CNG Y1 cells, membrane potential fluorescence; at 3.6 µM; hits give high values; NPY at EC95, then isoproterenol
Among all 200,000 compounds or so, about 2,000 (1%) were called active. The sample as a whole holds a higher share of actives than the screen did.
Consider the following compounds and their measured inhibition readings.
Parameter Measured: inhibition (%)

{"columns": ["Compound", "Parameter Measured", "Scale Unit", "Reported Result"],
 "data": [
  ["O=C(Nc1ccc(N2C(=O)c3cccc4cccc(c34)C2=O)cc1)c1ccc(N2CCCCC2)c([N+](=O)[O-])c1", "inhibition", "%", -0.12],
  ["CCOC(=O)C1CCN(CCC(=O)Nc2cccc(C)c2)CC1", "inhibition", "%", -5.31],
  ["O=C(O)/C(=C/c1cccnc1)NC(=O)c1ccccc1", "inhibition", "%", -1.58],
  ["O=S(=O)(Nc1ccc2cn[nH]c2c1)c1ccccc1", "inhibition", "%", -1.06],
  ["Cc1cccc(C(=O)Nc2ccccc2N2CCN(c3ccc(F)cc3)CC2)c1", "inhibition", "%", 6.05],
  ["CSc1cccc(NC(=S)N(Cc2ccccc2)Cc2ccccn2)c1", "inhibition", "%", 5.5],
  ["CC(Oc1ccc(Br)cc1Br)C(=O)NC1CCCC1 (centres undefined)", "inhibition", "%", 7.12],
  ["Cc1cccc(NC(=S)Nc2ccc(Cl)c(Cl)c2)c1", "inhibition", "%", 1.7],
  ["Cc1nc(-c2ccccc2)sc1C(=O)/C=C/c1ccccc1", "inhibition", "%", 21.8],
  ["CC(=O)c1cc(-c2ccccc2)n(CCC(=O)NC2CCCCCC2)c1C", "inhibition", "%", 2.33],
  ["COc1cc(SC)ccc1C(=O)Nc1cc(C)ccn1", "inhibition", "%", 4.33],
  ["O=C(CCC(=O)OCc1ccc(Cl)cc1)Nc1ccccc1", "inhibition", "%", -2.82],
  ["CC(C)Oc1ccccc1C(=O)NC(CO)C(=O)O (centres undefined)", "inhibition", "%", -2.02],
  ["O=C(Nc1cccc(Cl)c1)c1cc([N+](=O)[O-])ccc1N1CCN(CCO)CC1", "inhibition", "%", 0.17],
  ["CN(C)CCNC(=O)Cc1ccc([N+](=O)[O-])cc1", "inhibition", "%", -2.56],
  ["CS/C(=C\\[N+](=O)[O-])Nc1ccc(C)cc1", "inhibition", "%", 10.6],
  ["COc1ccc(F)cc1C(=O)C1CCCN(C(=O)CCc2ccccn2)C1 (centres undefined)", "inhibition", "%", 6.35],
  ["Cc1ccccc1NC(=O)Cn1c(=O)n(CC2CCCO2)c(=O)c2ccccc21 (centres undefined)", "inhibition", "%", 0.4],
  ["CC(=O)c1c(C)[nH]c(C(=O)COC(=O)c2cccc(S(=O)(=O)N(C)c3ccccc3)c2)c1C", "inhibition", "%", 2.37],
  ["CCC[C@@H]1C[C@@]1(CCC)[C@@H](NC(=O)c1ccccc1)c1ccc(C(=O)OC)cc1", "inhibition", "%", 6.57],
  ["COc1ccc2c(c1)C(C)=CC(C)(C)N2C(=O)Nc1ccccc1", "inhibition", "%", 13.7],
  ["ClC1(Cl)CC1CSc1ncn[nH]1 (centres undefined)", "inhibition", "%", 3.1],
  ["COC(=O)Cc1ccc(N(Cc2ccccc2F)S(=O)(=O)c2ccc(Br)cc2)cc1", "inhibition", "%", 18.1],
  ["CCC(=O)c1ccc(N2CCN(C(=O)c3cc([N+](=O)[O-])ccc3F)CC2)c(F)c1", "inhibition", "%", -2.39],
  ["CN1CCN(c2ccc(NC(=O)c3ccc4c(c3)OCCO4)cc2Cl)CC1", "inhibition", "%", 12],
  ["Cc1nnc(SCC(=O)N2c3ccccc3C(C)(c3ccc(Cl)cc3)CC2(C)C)s1 (centres undefined)", "inhibition", "%", 16.7],
  ["CCN1CCN(c2ccc([N+](=O)[O-])cc2C(=O)c2ccc(Cl)cc2)CC1", "inhibition", "%", 36.6],
  ["CC(=O)NCCC(=O)Nc1nc(C)c(Cc2ccc3c(c2)OCO3)s1", "inhibition", "%", 3.53],
  ["COc1ccccc1NC(=O)COC(=O)Cc1ccc(S(=O)(=O)N2CCCCC2)s1", "inhibition", "%", -4.82],
  ["Cc1cccc(NC(=S)NCCN(C2CCCCC2)C2CCCC2)c1", "inhibition", "%", 21.2],
  ["CN(C)CCCO/N=C(\\c1ccccc1)c1ccncc1", "inhibition", "%", -1.1],
  ["OCCC1CN(Cc2cccc(OC3CCCC3)c2)CCN1Cc1ccsc1 (centres undefined)", "inhibition", "%", 7.81],
  ["COc1ccc(NC(=O)CCNS(=O)(=O)c2ccc3c(c2)c(=O)n(C)c(=O)n3C)cc1OC", "inhibition", "%", 5.39],
  ["CCCOC(=O)c1[nH]c2c(c1C)C(=O)CC(c1cccs1)C2 (centres undefined)", "inhibition", "%", 33.9],
  ["COc1ccc(C(CC(=O)O)NC(=O)Cc2ccccc2)cc1 (centres undefined)", "inhibition", "%", -4.05],
  ["Cc1cccc(NC(=S)Nc2ccc(Br)cc2)c1", "inhibition", "%", 3.74],
  ["O=C(Nc1ccc2ccccc2c1)/C(=C/c1cccc(Br)c1)NC(=O)c1ccco1", "inhibition", "%", 7.08],
  ["Cc1nc(-c2ccccc2)sc1C(=O)/C=C/N(C)C", "inhibition", "%", 6.13],
  ["CCCOC(=O)c1[nH]c2c(c1C)C(=O)CC(c1cc(OC)c(OC)c(OC)c1)C2 (centres undefined)", "inhibition", "%", -8.2],
  ["CCC/C=C(\\CCC)C(NC(=O)Cc1ccccc1)c1ccc(C(=O)OC)cc1 (centres undefined)", "inhibition", "%", 26.8],
  ["CCOC(=O)N1CCN(C(=S)Nc2ccc(C)cc2C)CC1", "inhibition", "%", 3.77],
  ["COc1cccc(OC)c1C(=O)NC(=S)Nc1ccc(N2CCOCC2)c(Cl)c1", "inhibition", "%", 9.33],
  ["O=C1c2cccnc2C(Nc2ccc(S(=O)(=O)N3CCCCCC3)cc2)N1Cc1ccccc1 (centres undefined)", "inhibition", "%", 30.7],
  ["COc1ccc2nc(SCc3ccccc3)nc(C)c2c1", "inhibition", "%", 4.78]
]}

---

# Subject Of Test: Neuropeptide Y receptor type 1 (Homo sapiens) (UniProt P25929)
# Assay Remarks: blockers of human neuropeptide Y Y1 receptor – cell-based, primary screen (AID 1040);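 note: 0% = DMSO wells given NPY plus isoproterenol and 100% = isoproterenol alone without NPY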
# Condition Description: HEK293-CNG Y1 cells, membrane potential fluorescence; at 3.6 µM; hits give high values; NPY at EC95, then isoproterenol
Hit rate of the full screen: of about 200,000 compounds, about 2,000 (1%) were called active. Only a selection was taken, and actives are over-represented in it overall.
Consider the following molecules and their measured inhibition readings.
Parameter Measured: inhibition

{"columns": ["Molecule", "Reported Result"],
 "data": [
  ["Cc1noc(C)c1C(=O)N(CC(=O)NC1CCCC1)Cc1ccccc1F", "1.99% (inactive)"],
  ["O=C(O)c1ccccc1-c1ccccc1C(=O)Nc1nccs1", "2.4% (inactive)"],
  ["CCCCCCCCn1c2c(c(=N)c3c1CCC3)CCCC2", "81.5% (active)"],
  ["O=C(O)c1ccc(/C=N/NC(=O)c2ccc(Br)cc2)cc1", "2.79% (inactive)"],
  ["O=C(c1ccccc1)c1ccc(OCC(O)CN2CCCC2)cc1 (stereo unspecified)", "20.8% (active)"],
  ["O=C(CSc1nnnn1C1CCCC1)Nc1ccc2c(c1)OCCO2", "22.9% (active)"],
  ["C/C(=N\\NC(=S)NCc1ccccc1)c1ccc(Cl)cc1", "21.7% (active)"],
  ["CCC(=O)Nc1cccc(NC(=O)CSc2nnnn2C2CCCC2)c1", "3.57% (inactive)"],
  ["O=C(Nc1cccc(Cl)c1)Nc1ccccc1NS(=O)(=O)c1cccs1", "-7.2% (inactive)"],
  ["COc1cc(OC)c(C(=O)Nc2ccccc2-c2ccccc2)cc1OC", "2.51% (inactive)"],
  ["Cc1ccc(N2C(=O)C3CC3C2=O)cc1 (stereo unspecified)", "-4.56% (inactive)"],
  ["O=C(Cc1cccs1)Nc1cccc(-c2nc3ccccc3[nH]2)c1", "3.86% (inactive)"],
  ["O=C(NCc1ccccn1)c1cc(-c2ccccc2Cl)on1", "9.55% (inactive)"],
  ["N=c1c2c(-c3ccccc3)c(-c3ccccc3)oc2ncn1Cc1ccco1", "25.5% (active)"],
  ["CCOCCCNCc1cc(Br)ccc1OCC", "11.8% (inactive)"],
  ["CCC1(CC)NC(=O)N(CC(=O)OCC(=O)NC(=O)c2ccccc2)C1=O", "1.96% (inactive)"],
  ["COc1ccc(CN(CC(=O)NC2CCCC2)C(=O)CCC(=O)Nc2cc(C)on2)cc1", "1.61% (inactive)"],
  ["O=C(c1ccc(Cl)cc1)c1ccc(OCC(O)CN2CCCCC2)cc1 (stereo unspecified)", "6.02% (inactive)"],
  ["COc1ccc(OC)c(NC(=O)CSc2nc(N)c(-c3ccccc3)c(=O)[nH]2)c1", "30.3% (active)"],
  ["c1ccc(-c2oc3ncnc(N4CCOCC4)c3c2-c2ccccc2)cc1", "4.24% (inactive)"],
  ["C/C(=N\\NC(=S)NCc1ccccc1)C1CCCCC1", "3.71% (inactive)"],
  ["O=S(=O)(O)c1nc2ccccc2n1Cc1ccc(Cl)cc1", "21.2% (active)"],
  ["Cc1ccc(-n2nc3ccc(NC(=O)/C=C/c4ccco4)cc3n2)cc1C", "6.59% (inactive)"],
  ["O=S(=O)(O)c1nc2ccccc2n1Cc1ccc(Cl)cc1Cl", "-2.49% (inactive)"],
  ["COC(=O)c1ccc(C2C(Oc3ccccc3C)C(=O)N2CCc2ccc(OC)c(OC)c2)cc1 (stereo unspecified)", "8.91% (inactive)"],
  ["COc1ccc2[nH]c3c(=O)n(Cc4ccco4)cnc3c2c1", "1.7% (inactive)"],
  ["CC(C)(C)NCc1cc(Br)ccc1OC1CCCC1", "37.7% (active)"],
  ["O=C(/C=C/c1ccco1)Nc1cccc(-c2nc3ccccc3[nH]2)c1", "20.3% (active)"],
  ["CCOc1ccc(S(=O)(=O)NCCSc2ccccc2)cc1", "28.4% (active)"],
  ["COc1ccc(CC(=O)Nc2ccccc2NC(=O)c2ccco2)cc1OC", "0.93% (inactive)"],
  ["CC(=O)c1cccc(CN2CCC(CO)(Cc3ccccc3)CC2)c1", "2.21% (inactive)"]
]}
